System: Mycobacterium tuberculosis H37Rv growth inhibition, no glycerol
Experiment: Mycobacterium tuberculosis h37rv growth inhibition in absence of glycerol, confirmatory dose response (AID 588437)
Inconclusive results are not listed.
Reported IC90 is given for each of the following compounds.
MEASURED_METRIC: IC90

In [3]: df
Out[3]:
                                   compound  endpoint_result
0  O=C(c1ccc(CNc2c(N3CCOCC3)c(=O)c2=O)cc1)N1CC=C(c2ccccc2)CC1          15.4 µM
1       COC(=O)CSc1ncnc2c1cnn2-c1ccc(C)cc1C          6.65 µM
2      CCOC(=O)CSc1ncnc2c1cnn2-c1ccc(C)cc1C          7.19 µM
3          CCOC(=O)CSc1ncnc2c1cnn2-c1ccccc1          47.7 µM
4  CCC(C)NC(=O)CSc1nc2ccccc2c(=O)[nH]1 (configuration not stated)          4.01 µM
5  Cc1cccc(N2CCN(C(=O)c3ccc(CNc4c(N5CCC(C)CC5)c(=O)c4=O)cc3)CC2C)c1 (configuration not stated)          51.8 µM
6  CCOC(=O)N1CCC(Nc2c(Nc3cccc(CC)c3)c(=O)c2=O)CC1          85.3 µM
